Tested on: HOP-92
Assay: NCI tumour cell line growth inhibition, 48 h
The source made the active and inactive calls. Rule as the data show it: active = GI50 up to about 1.1 µM and inactive = higher.
Classes used: t = active, f = inactive

{"COMPOUND": "CC1=C(/C=C/Cl)CC(Cl)C(C)(Cl)C1 (stereo not given)", "ASSIGNED LABEL": "f"}
{"COMPOUND": "C/C(=N\\NC(=S)N(C)C)c1nc2cccnc2[nH]1", "ASSIGNED LABEL": "t"}
{"COMPOUND": "CC(C)(C)N1C=[N+](C(C)(C)C)CC1", "ASSIGNED LABEL": "f"}
{"COMPOUND": "CN(CCNC(=O)c1nn(C)c2c1Cc1ccccc1-2)CCNC(=O)c1nn(C)c2c1Cc1ccccc1-2", "ASSIGNED LABEL": "f"}
{"COMPOUND": "Cc1ccc(S(=O)(=O)NC(=O)NC(Cc2c[nH]c3ccccc23)C(=O)O)cc1 (stereo not given)", "ASSIGNED LABEL": "f"}
{"COMPOUND": "COc1cc(C2c3cc4c(cc3OC(N3CCOCC3)C2C)OCO4)cc(OC)c1OC (stereo not given)", "ASSIGNED LABEL": "t"}
{"COMPOUND": "O=C(CC(=O)N1N=C(n2ccc3ccccc32)CC1c1ccccc1)Nc1ccccc1Cl (stereo not given)", "ASSIGNED LABEL": "f"}
{"COMPOUND": "C=CNC(=S)n1nc(-c2ccccc2NC(=O)C(F)(F)F)c(=O)n(C(=S)NC=C)c1=S", "ASSIGNED LABEL": "f"}
{"COMPOUND": "CC1OC(O[C@H]2CC[C@]3(C)[C@H]4CC=C5[C@@H]6[C@@H](C)[C@H](C)CC[C@]6(C(=O)O)CC[C@@]5(C(=O)O)[C@]4(C)CC[C@H]3C2(C)C)C(O)C(O)C1O (stereo not given in full)", "ASSIGNED LABEL": "f"}
{"COMPOUND": "C/C(=N\\NC(=O)c1ccncc1)c1cccc(C(F)(F)F)c1", "ASSIGNED LABEL": "f"}
{"COMPOUND": "N#CC12C(=O)N3C(=NC(c4ccccc4)NC3c3ccccc3)C1(C#N)C(c1ccccc1)NC1=C2CCCC1 (stereo not given)", "ASSIGNED LABEL": "f"}
{"COMPOUND": "COc1cc(-c2cc(=O)c3cc4c(cc3[nH]2)OCO4)cc(OC)c1O", "ASSIGNED LABEL": "f"}
{"COMPOUND": "Cc1ccc(-[n+]2cc([O-])on2)cc1", "ASSIGNED LABEL": "f"}
{"COMPOUND": "c1ccc(-c2[nH]c(-c3ccccc3)c(-c3cnccn3)c2-c2cnccn2)cc1", "ASSIGNED LABEL": "f"}
{"COMPOUND": "N#C/C(=C/Sc1ccccc1)C(=O)O", "ASSIGNED LABEL": "f"}
{"COMPOUND": "C=CCN1C[C@H](C)N([C@@H](c2ccc(C(=O)N3CCCCC3)cc2)c2cccc(OC)c2)C[C@H]1C", "ASSIGNED LABEL": "f"}
{"COMPOUND": "Cc1ccc(S(=O)(=O)NNC(=O)c2cc(C)ccc2NC(=O)C23CC4CC(CC(C4)C2)C3)cc1", "ASSIGNED LABEL": "f"}
{"COMPOUND": "COc1ccc(Nc2nnc(CCCCCCCCc3nnc(Nc4ccc(OC)cc4)o3)o2)cc1", "ASSIGNED LABEL": "f"}
{"COMPOUND": "C#Cc1c(C)c(/C=C/C(C)=C/C(=O)OC)n(C)c1C", "ASSIGNED LABEL": "f"}
{"COMPOUND": "O=C(c1cc2c(c3ccccc13)NC1(CCCCC1)N=C2C(F)(F)F)C(F)(F)F", "ASSIGNED LABEL": "f"}
